Test: Biodistribution and pharmacokinetics in plasma and liver after intravenous administration in mice
Format: in vivo
Conditions: male, C57 BL/6, mouse, liver tissue, 5 mg/kg intravenous, read-out: MRT0-t, liver
Exercise: for every item that follows, state its recorded MRT last.
Numbers only, in h.

| MOLECULE | MRT last, h |
| --- | --- |
| O=C(N[C@@H](Cc1ccc(F)cc1)C(=O)N1CCC(O)CC1)c1cc2cc(Cl)ncc2[nH]1 [PSN-357] | 4.52 |

Then this molecule:
Task item: Using the record for C[C@H](CCC(=O)N[C@@H](CC(=O)O)C(=O)OC1CCN(C(=O)[C@H](Cc2ccc(F)cc2)NC(=O)c2cc3cc(Cl)ncc3[nH]2)CC1)[C@H]1CC[C@H]2[C@@H]3[C@H](O)C[C@@H]4C[C@H](O)CC[C@]4(C)[C@H]3C[C@H](O)[C@]12C [Conjugate 6] , report its MRT last.
Reply: 4.42

---

Assay: Biodistribution and pharmacokinetics in plasma and liver after intravenous administration in mice
Format: in vivo
Settings: male, C57 BL/6, mouse, plasma, iv, 5 mg/kg, 5 mg/kg intravenous
METRIC_NAME: Cmax (ng/mL)
Numbers only, in ng/mL.

| COMPOUND | TEST_RESULT |
| --- | --- |
| O=C(N[C@@H](Cc1ccc(F)cc1)C(=O)N1CCC(O)CC1)c1cc2cc(Cl)ncc2[nH]1 [PSN-357] | 628 |

For the next question, use this compound.
Task item: What value of Cmax has been recorded for this entry: C[C@H](CCC(=O)N[C@@H](CC(=O)O)C(=O)OC1CCN(C(=O)[C@H](Cc2ccc(F)cc2)NC(=O)c2cc3cc(Cl)ncc3[nH]2)CC1)[C@H]1CC[C@H]2[C@@H]3[C@H](O)C[C@@H]4C[C@H](O)CC[C@]4(C)[C@H]3C[C@H](O)[C@]12C [Conjugate 6]
Reply: 726

---

Field: melting point. Provide a value for each of the compounds that follow.
Counter-ions that a name gives are not always drawn.

Quick batch: melting point for everything below.
1. CC(C)[C@H](NC(=O)OC(C)(C)C)C(=O)N[C@@H](C)C(=O)OC1CCN(C(=O)[C@H](Cc2ccc(F)cc2)NC(=O)c2cc3cc(Cl)ncc3[nH]2)CC1
2. CC(C)[C@H](N)C(=O)OC1CCN(C(=O)[C@H](Cc2ccc(F)cc2)NC(=O)c2cc3cc(Cl)ncc3[nH]2)CC1 (as salt: hydrochloride)
3. CC(C)(C)OC(=O)c1ccc(/N=N/c2ccccc2CCC(=O)OC2CCN(C(=O)[C@H](Cc3ccc(F)cc3)NC(=O)c3cc4cc(Cl)ncc4[nH]3)CC2)cc1
4. C[C@H](CCC(=O)NCCNC(=O)c1ccc(/N=N/c2ccccc2CCC(=O)OC2CCN(C(=O)[C@H](Cc3ccc(F)cc3)NC(=O)c3cc4cc(Cl)ncc4[nH]3)CC2)cc1)[C@H]1CC[C@H]2[C@@H]3[C@H](O)C[C@@H]4C[C@H](O)CC[C@]4(C)[C@H]3C[C@H](O)[C@]12C [Conjugate 9]
5. CC(C)[C@H](NC(=O)CC[C@@H](C)[C@H]1CC[C@H]2[C@@H]3[C@H](O)C[C@@H]4C[C@H](O)CC[C@]4(C)[C@H]3C[C@H](O)[C@]12C)C(=O)OC1CCN(C(=O)[C@H](Cc2ccc(F)cc2)NC(=O)c2cc3cc(Cl)ncc3[nH]2)CC1 [Conjugate 4]

Reply:
151 to 153 °C
214 to 216 °C
123 to 125 °C
172 to 174 °C
185 to 187 °C
